assay explanation: NOD1 signaling inhibitors, primary screen, cell-based, luminescence, uHTS (AID 1578);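 further: HEK-293T reporter cells stimulated with the NOD1 agonist gamma-tri-DAP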
experimental conditions: NOD1-driven NF-kB luciferase reporter cells, at 4 µM
Among all 290,000 compounds or so, about 3,000 (1%) were called active. No stated cut-off is given here; in the data, active means inhibition mostly above about 36% (no sharp cut-off); inactive means mostly below about 34%. The full list was thinned out, with actives kept by preference.
Please state which outcome applies, choosing from TRUE for active, FALSE for inactive

| compound | discrete label |
| --- | --- |
| O=C(CNC(=O)c1ccc2c(c1)OCO2)N/N=C/c1cccc([N+](=O)[O-])c1 | FALSE |
| OC(COC(c1ccc(F)cc1)c1ccc(F)cc1)CN1CCCC1 (stereo unspecified) | TRUE |
| Cc1ccc(OCCNC(=O)c2ccc3c(c2)OCO3)cc1 | FALSE |
| O=C(CCCN1C(=O)/C(=C/c2cccs2)SC1=S)Nc1ccccc1O | FALSE |

Per the assay record, what outcome was assigned to `Cc1cccc(NC(=O)Cc2c(F)cccc2Cl)n1` ? FALSE

Per the assay record, what outcome was assigned to OC(COC(c1ccc(Cl)cc1)c1ccc(Cl)cc1)CN1CCCC1 (stereo unspecified) ? FALSE

Per the assay record, what outcome was assigned to `COCc1cc(NCc2ccc(Cl)cc2)nc(C)n1` ? FALSE

Per the assay record, what outcome was assigned to `O=C(CNC(=O)c1ccc2c(c1)OCO2)N/N=C(Br)/C=C/c1ccccc1` ? TRUE

Per the assay record, what outcome was assigned to OCCN1CCN(CC(O)COC(c2ccc(F)cc2)c2ccc(F)cc2)CC1 (stereo unspecified) ? FALSE

Per the assay record, what outcome was assigned to `O=C(NCCOc1ccccc1)c1ccc2c(c1)OCO2` ? TRUE

Per the assay record, what outcome was assigned to `Oc1c(Br)cc(Br)cc1C=Nc1cccnc1` ? TRUE
